Tested on: CCRF-CEM leukemia
Test: NCI-60 one-dose screen, 48 h
Conditions: 10 µM unless noted
Compounds without any hit were thinned out: in the full panel of roughly 83,000, 20% have a hit. Active and inactive are the calls of the source. Rule for the calls: active = growth percent below 10; inactive = the rest.
Respond with a class label; see active, inactive

Use the examples below as a reference point.
[
  {
    "compound": "CC(C)CCNCC(O)Cn1c2ccccc2c2ccccc21 (stereo not given)",
    "classification": "inactive"
  },
  {
    "compound": "COc1cc(/C=C/C(=O)c2ccc(Cl)cc2)cc(CN2CCCCC2)c1O",
    "classification": "inactive"
  },
  {
    "compound": "CN(O)c1nc(N(C)O)nc(N2CCOCC2)n1",
    "classification": "active"
  },
  {
    "compound": "COc1cc(/C=C2\\CN(C)C/C(=C\\c3cc(CN4CCCCC4)c(O)c(OC)c3)C2=O)cc(CN2CCCCC2)c1O",
    "classification": "inactive"
  },
  {
    "compound": "COc1ccc2oc(=O)cc(Cn3cc(Cn4cnc5c4c(=O)n(C)c(=O)n5C)nn3)c2c1",
    "classification": "inactive"
  },
  {
    "compound": "CSc1nc2c(c(=O)[nH]1)N=C1c3ccccc3C(=O)C1C(c1ccccc1)N2 (stereo not given)",
    "classification": "inactive"
  },
  {
    "compound": "CN(C)/C=C1\\SC(=Nc2ccc(Cl)cc2)NC1=O",
    "classification": "inactive"
  },
  {
    "compound": "COC(=O)c1ccc(NC(=O)CSc2nc3ccccc3c(=O)n2-c2ccccc2)cc1",
    "classification": "inactive"
  }
]

Assay outcome for `COc1cc(-c2c3c(cn2S(=O)(=O)c2ccccc2)-c2nc(N)sc2CC3)cc(OC)c1OC` : what was it? active

Assay outcome for CC1=CCC(OC(=O)C(C)(C)CCC(O)(C(=O)OC2(C(C)C)CCC3(C)OC3C2)C(C)C)(C(C)C)CC1 (stereo not given) : what was it? active

Assay outcome for `CC(C)c1ccc(S(=O)(=O)NC(=O)NC2CCCC2)cc1` : what was it? inactive

Assay outcome for `NCCNc1nc2ccccc2c2c(=O)c3cc(F)cc(Cl)c3sc12` : what was it? active

Assay outcome for CCN1C(=O)N(c2ccccc2)C2Nn3c(s/c(=C4\C(=O)N(C(C)C)c5ccccc54)c3=O)=NC21 (stereo not given) : what was it? inactive

* * *

System: SF-295 CNS
Experiment: NCI-60 one-dose screen, 48 h
Conditions: 10 µM unless noted
This is part of a sample that, as a whole, favours compounds with a hit. Of some 83,000 tested, about 20% had one in any assay. Active and inactive are the calls of the source. How the source made its calls: active means growth percent below 10; inactive means the rest.
Respond with a class label; see yes (1) for active, no (0) for inactive

Assay outcome for `COc1ccc(S(=O)(=O)N(Cc2ccc3c(n2)C=CC(C)(C)O3)C2CCC2)cc1OC` : what was it? yes (1)

Assay outcome for `Cc1ccc(C)c(-c2csc(Nc3ccc(C)c(C)c3)n2)c1` : what was it? yes (1)

Assay outcome for `Cc1cccc2c(=O)c3c(sc12)c(N1CCNCC1)nc1ccccc13` : what was it? no (0)

Assay outcome for `O=C1/C(=C\c2ccc[nH]2)c2ccccc2N1c1ccccc1` : what was it? no (0)

* * *

Reported values of growth for individual entries
Tested on: SK-MEL-28 melanoma
Experiment: NCI-60 one-dose screen, 48 h (100 = growth as untreated, 0 = no growth, -100 = all killed)
Settings: 10 µM
Compounds without any hit were thinned out: in the full panel of roughly 83,000, 20% have a hit. Calls of active or inactive are those of the source. The calls were made as follows: active = growth percent below 10; inactive = the rest.

Reference set (3 entries):
[
  {
    "compound": "CC(C)CCOc1ccc(-c2n[nH]c(C(F)(F)F)c2-c2cncc(C#N)c2)c(O)c1",
    "growth": "33.7% (inactive)"
  },
  {
    "compound": "COC(=O)/C(CCC=C(C)C)=C1\\[C@@H](OC(C)=O)C[C@@]2(C)[C@H]1C[C@@H](O)[C@H]1[C@@]3(C)CC[C@H](NCc4ccccc4)[C@@H](C)[C@@H]3CC[C@@]12C",
    "growth": "74.6% (inactive)"
  },
  {
    "compound": "Cc1sc2ncnc(Sc3nc4ccccc4[nH]3)c2c1C",
    "growth": "-92.5% (active)"
  }
]

Now for the compound whose growth we want.
Lab note: SK-MEL-28 melanoma assay, enter growth for CCN1C(=O)N(CC)C2Nn3c(s/c(=C\c4ccccc4F)c3=O)=NC21 (stereo not given) here 54.2% (inactive)
